Entries and their Change in Log10 CFU/ml over 0 hour count after 24 hours
Tested on: K. pneumoniae B-88 producing metallo beta-lactamase enzymes
Experiment: Time kill study against K. pneumoniae B-88
Type: cell-based
Conditions: 2 mcg/ml alone
parameter measured: Change in Log10 CFU/ml over 0 hour count after 24 hours

compound	value reported
O=C(NOC[C@@H]1CCCN1)[C@@H]1CC[C@@H]2CN1C(=O)N2OS(=O)(=O)O	1.26 Log10 CFU/ml
O=C(NNC(=O)[C@@H]1CC[C@@H]2CN1C(=O)N2OS(=O)(=O)O)[C@@H]1CCCNC1	1.26 Log10 CFU/ml
N#C[C@@H]1CC[C@@H]2CN1C(=O)N2OS(=O)(=O)O	2.12 Log10 CFU/ml
NCCONC(=O)[C@@H]1CC[C@@H]2CN1C(=O)N2OS(=O)(=O)O [Compound (E)]	1.26 Log10 CFU/ml
